- study.system: H3 receptors (Cavia porcellus)
- Sequence (Q9JI35 whole entry): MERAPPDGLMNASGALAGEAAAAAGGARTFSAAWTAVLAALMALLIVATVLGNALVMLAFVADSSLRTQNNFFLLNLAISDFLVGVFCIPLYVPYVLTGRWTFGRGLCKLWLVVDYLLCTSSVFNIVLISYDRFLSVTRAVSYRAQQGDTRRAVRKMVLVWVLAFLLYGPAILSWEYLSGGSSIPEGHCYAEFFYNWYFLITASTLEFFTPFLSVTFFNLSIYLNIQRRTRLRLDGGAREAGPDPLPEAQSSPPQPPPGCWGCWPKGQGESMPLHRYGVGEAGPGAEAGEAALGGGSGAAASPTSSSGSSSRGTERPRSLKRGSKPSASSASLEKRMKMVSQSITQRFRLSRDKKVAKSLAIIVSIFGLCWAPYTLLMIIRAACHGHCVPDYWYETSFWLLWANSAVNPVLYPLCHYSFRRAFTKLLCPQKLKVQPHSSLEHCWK
pKi: −log10 of the molar value.
Each record gets a class by pKi: Low: < 7; Mid: ≥ 7 and < 8; High: ≥ 8

Hey, which category is Cc1cc(C)cc(NC(=O)/C=C/c2ccc(Cc3c[nH]cn3)cc2)c1 in, do you know?
High

Hey, which category is N#Cc1cccc(NC(=O)/C=C/c2ccc(Cc3c[nH]cn3)cc2)c1 in, do you know?
High

Hey, which category is O=C(/C=C/c1ccc(Cc2c[nH]cn2)cc1)NCCc1cccnc1 in, do you know?
Low

Hey, which category is CN(C(=O)/C=C/c1ccc(Cc2c[nH]cn2)cc1)c1ccc(Cl)cc1 in, do you know?
Mid

Hey, which category is CC(CNC(=O)/C=C/c1ccc(Cc2c[nH]cn2)cc1)c1ccccc1 (stereo not drawn) in, do you know?
Mid

Hey, which category is O=C(/C=C/c1ccc(Cc2c[nH]cn2)cc1)c1ccc(Cl)cc1 in, do you know?
Low

----------
Entries with reported pKi on H3 receptors (Cavia porcellus)
// pKi is dimensionless: -log10 of concentration (M)

Provide value of pKi for this record tested with H3 receptors (Cavia porcellus): Cc1ccc(CCNC(=O)/C=C/c2ccc(Cc3c[nH]cn3)cc2)cc1
8.22

Provide value of pKi for this record tested with H3 receptors (Cavia porcellus): O=C(/C=C/c1ccc(Cc2c[nH]cn2)cc1)NCCCN1CCCC1
6.24

Provide value of pKi for this record tested with H3 receptors (Cavia porcellus): O=C(/C=C/c1ccc(Cc2c[nH]cn2)cc1)NCc1ccco1
6.96

Provide value of pKi for this record tested with H3 receptors (Cavia porcellus): O=C(/C=C/c1ccc(Cc2c[nH]cn2)cc1)Nc1ccccc1
8.70

Provide value of pKi for this record tested with H3 receptors (Cavia porcellus): O=C(/C=C/c1ccc(Cc2c[nH]cn2)cc1)NCc1ccc2ccccc2c1
6.70

Provide value of pKi for this record tested with H3 receptors (Cavia porcellus): O=C(/C=C/c1ccc(Cc2c[nH]cn2)cc1)Nc1cc(Cl)cc(Cl)c1
7.92

Provide value of pKi for this record tested with H3 receptors (Cavia porcellus): O=C(/C=C/c1ccc(Cc2c[nH]cn2)cc1)Nc1cccc(F)c1
9.00

Provide value of pKi for this record tested with H3 receptors (Cavia porcellus): CN1CCCC1CCNC(=O)/C=C/c1ccc(Cc2c[nH]cn2)cc1 (stereo not shown)
6.00

Provide value of pKi for this record tested with H3 receptors (Cavia porcellus): O=C(/C=C/c1ccc(Cc2c[nH]cn2)cc1)Nc1cccc(Cl)c1
8.40

Provide value of pKi for this record tested with H3 receptors (Cavia porcellus): CC(CCc1ccccc1)NC(=O)/C=C/c1ccc(Cc2c[nH]cn2)cc1 (stereo not shown)
7.43

Provide value of pKi for this record tested with H3 receptors (Cavia porcellus): O=C(/C=C/c1ccc(Cc2c[nH]cn2)cc1)NCCc1c[nH]c2ccccc12
7.35

Provide value of pKi for this record tested with H3 receptors (Cavia porcellus): O=C(/C=C/c1ccc(Cc2c[nH]cn2)cc1)NCc1ccc(Cl)cc1
7.64

Provide value of pKi for this record tested with H3 receptors (Cavia porcellus): O=C(/C=C/c1ccc(Cc2c[nH]cn2)cc1)NC1CCCCC1
7.59

Provide value of pKi for this record tested with H3 receptors (Cavia porcellus): Cn1cnc(Cc2ccc(/C=C/C(=O)Nc3ccc(Cl)cc3)cc2)c1
6.57

Provide value of pKi for this record tested with H3 receptors (Cavia porcellus): O=C(/C=C/c1ccc(Cc2c[nH]cn2)cc1)NCCc1ccccc1F
8.00

Provide value of pKi for this record tested with H3 receptors (Cavia porcellus): O=C(/C=C/c1ccc(Cc2c[nH]cn2)cc1)Nc1ccc(Cl)cc1
8.70

Provide value of pKi for this record tested with H3 receptors (Cavia porcellus): O=C(/C=C/c1ccc(Cc2c[nH]cn2)cc1)NCCc1ccccc1Cl
7.92

Provide value of pKi for this record tested with H3 receptors (Cavia porcellus): O=C(/C=C/c1ccc(Cc2c[nH]cn2)cc1)NCCc1cccc(Cl)c1
7.96

Provide value of pKi for this record tested with H3 receptors (Cavia porcellus): O=C(/C=C/c1ccc(Cc2c[nH]cn2)cc1)NC1CCCc2ccccc21 (stereo not shown)
6.66
